Reference source for all entries: patent US9044480B1

system: NS3 protease domain from GT 1b HCV-infected subjects in replicon shuttle vector; experiment: Replicon transient transfection EC50, NS3 protease domain from subjects cloned into shuttle vector, GT 1b; type: cell-based; settings: Hepatitis C virus, GT1B, 96 h, read-out: EC50 Day 4, Subject J, GT 1b, 100/100 mg dose group, Day 4 sample
result.type: EC50
Please state the value followed by its unit.

Form field EC50, entry Cc1cnc(C(=O)N[C@H]2CCCCC/C=C\[C@@H]3C[C@@]3(C(=O)NS(=O)(=O)C3CC3)NC(=O)[C@@H]3C[C@@H](Oc4nc5ccccc5c5ccccc45)CN3C2=O)cn1 [Compound I] : 15.5 nM
